Target: human HSL (Homo sapiens, UniProt Q05469)
Construct: overlapping PCR to generate a full length human HSL ORF with a 3′-His6 tag; His6 (C)
Sequence (Q05469 whole entry): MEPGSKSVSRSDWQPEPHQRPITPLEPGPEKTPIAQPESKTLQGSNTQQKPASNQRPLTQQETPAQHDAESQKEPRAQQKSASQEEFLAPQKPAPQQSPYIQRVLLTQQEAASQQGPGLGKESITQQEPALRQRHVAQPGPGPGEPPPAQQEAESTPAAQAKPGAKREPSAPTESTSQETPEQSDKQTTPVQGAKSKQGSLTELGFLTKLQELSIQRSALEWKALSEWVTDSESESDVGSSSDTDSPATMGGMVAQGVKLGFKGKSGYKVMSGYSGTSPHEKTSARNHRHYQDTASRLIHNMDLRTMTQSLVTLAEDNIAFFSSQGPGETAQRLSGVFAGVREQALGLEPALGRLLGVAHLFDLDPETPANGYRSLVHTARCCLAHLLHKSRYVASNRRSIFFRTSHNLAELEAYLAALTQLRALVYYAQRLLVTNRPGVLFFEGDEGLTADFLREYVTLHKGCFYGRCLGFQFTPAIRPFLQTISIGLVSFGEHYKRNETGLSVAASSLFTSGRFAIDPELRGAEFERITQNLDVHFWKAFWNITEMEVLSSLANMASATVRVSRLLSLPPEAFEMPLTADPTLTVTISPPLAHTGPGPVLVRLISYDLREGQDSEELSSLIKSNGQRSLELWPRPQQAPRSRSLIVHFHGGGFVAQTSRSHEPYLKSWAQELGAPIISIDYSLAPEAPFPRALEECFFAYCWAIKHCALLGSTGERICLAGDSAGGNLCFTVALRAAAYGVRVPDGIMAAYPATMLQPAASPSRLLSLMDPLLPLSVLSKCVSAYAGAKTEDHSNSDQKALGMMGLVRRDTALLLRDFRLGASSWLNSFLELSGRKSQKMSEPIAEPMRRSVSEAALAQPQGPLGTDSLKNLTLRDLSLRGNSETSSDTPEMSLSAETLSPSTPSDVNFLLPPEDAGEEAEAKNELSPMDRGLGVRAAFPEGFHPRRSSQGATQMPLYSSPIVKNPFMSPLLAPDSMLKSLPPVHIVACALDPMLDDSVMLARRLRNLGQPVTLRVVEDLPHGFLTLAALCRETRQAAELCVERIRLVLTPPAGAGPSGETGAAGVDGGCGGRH
Assay: Human Hormone-Sensitive Lipase (HSL) Enzyme Inhibition Assay
Conditions: colorimetric assay, 2,3-dimercapto-1-propanol tributyrate (DMPT) substrate, 37° C. for 20 minutes, absorbance at 405 nm; read-out: HSL hum IC50
Method: Production of Human Full Length Hormone Sensitive Lipase-His^6 1) Cloning: cDNA was prepared from commercial human brain polyA-+ RNA and used as a template in overlapping PCR to generate a full length human HSL ORF with a 3′-His6 tag. […] Cells were thawed. […] The protein concentration was calculated from absorbance at 280 nm, using 280=0.67 cm-1 mg-1. […] HSL enzyme activity was measured by a colorimetric assay using 2,3-dimercapto-1-propanol tributyrate (Aldrich, St. Louis, Mo.) as a substrate. […]
pIC50: −log10 of the molar value.
Recorded metric: pIC50

# example entries with known answers
CCNS(=O)(=O)N1CCC2(CCN(c3ccc(OC(F)(F)F)cc3)C2=O)CC1 : 6.80
CNc1ncccc1S(=O)(=O)N1CCC2(CCN(c3ccc(OCC(F)(F)F)cc3)C2=O)CC1 : 7.22
CC(=O)c1ccc(N2CCC3(CCN(S(=O)(=O)c4ccccc4Cl)CC3)C2=O)cc1 : 7.30
CCCN(C)C(=O)N1CCC2(CC1)CCN(c1ccc(CC)cc1)C2=O : 6.74
O=C1N(c2ccc(OC(F)(F)F)cc2)CCC12CCN(S(=O)(=O)c1cccnc1OCc1ccccc1)CC2 : 7.30
CC(Oc1ccc(N2CCC3(CCN(S(=O)(=O)c4ccccc4C(F)(F)F)CC3)C2=O)cc1)C(F)(F)F (stereo not shown) [Example 100] : 7.40
CC(O)(c1ccc(N2CCC3(CCN(S(=O)(=O)c4ccccc4C(F)(F)F)CC3)C2=O)cc1)C(F)(F)F (stereo not shown) : 7.52
CN(CCO)S(=O)(=O)N1CCC2(CCN(c3ccc(OC(F)(F)F)cc3)C2=O)CC1 : 6.70
CCCCN(C)C(=O)N1CCC2(CC1)CCN(c1ccc(OC(F)(F)F)cc1)C2=O : 7.15
CC(O)c1ccc(N2CCC3(CCN(S(=O)(=O)c4ccccc4Cl)CC3)C2=O)cc1 (stereo not shown) : 7.00

A. CC(C)(O)c1ccc(N2CCC3(CCN(S(=O)(=O)c4ccccc4C(F)(F)F)CC3)C2=O)cc1
B. O=C1N(c2ccc(OC(F)(F)F)cc2)CCC12CCN(S(=O)(=O)CC1CCCO1)CC2 (stereo not shown)
C. O=C(N1CCCCCC1)N1CCC2(CC1)CCN(c1ccc(OC(F)(F)F)cc1)C2=O
D. O=C1N(c2ccc(OCC3CCCC3)cc2)CCC12CCN(S(=O)(=O)c1ccccc1Cl)CC2
Ask | Please rank these molecules by pIC50 in descending order. List the labels in the requested order.
Reply | A, B, C, D
(A: 7.22, B: 7.00, C: 6.66, D: 6.22)

I. CCCCCN(C)C(=O)N1CCC2(CC1)CCN(c1ccc(OC(F)(F)F)cc1)C2=O
II. COCCCc1ccc(N2CCC3(CCN(S(=O)(=O)c4ccccc4OC(F)(F)F)CC3)C2=O)cc1
Ask | Sort I and II by pIC50 descending and give the first. Refer to your chosen entry by its label in the reply.
Reply | II
(II: 7.30, I: 7.10)

Values from patent US8329904B2
